Hey, just so you know, these numbers are from ChEMBL document CHEMBL4477222.

assay: AUC (0 to infinity) in monkey at 1 mg/kg, iv through bolus administration; type: ADME, organism-based, Macaca mulatta; design: dose 1 mg/kg, route intravenous, time infinity; details: rhesus monkey, in vivo
quantityMeasured: AUC(0-inf) (ng·h/mL)

>>> reportedvalue("CC(C)(C)C#Cc1cc(N(CC(=O)N2CCOCC2)C(=O)[C@H]2CC[C@H](C)CC2)c(C(=O)O)s1")
1730

====

assay: Protein binding in human plasma at 1 uM; format: ADME, cell-free; settings: read-out: PPB (converted)
quantityMeasured: fraction unbound at 1 µM

>>> reportedvalue("CC(C)(C)C#Cc1cc(N(CC(=O)N2CCOCC2)C(=O)[C@H]2CC[C@H](C)CC2)c(C(=O)O)s1")
0.014

====

molecular target: Nonstructural protein 5A (Hepatitis C virus); experiment: Inhibition of HCV genotype 2a NS5A
quantityMeasured: EC50 (µM)

>>> reportedvalue("CC(C)(C)C#Cc1cc(N(CC(=O)N2CCOCC2)C(=O)[C@H]2CC[C@H](C)CC2)c(C(=O)O)s1")
4.8
>>> reportedvalue("CC(C)(C)C#Cc1cc(N(C(=O)[C@H]2CC[C@H](C)CC2)[C@H]2CC[C@H](O)CC2)c(C(=O)O)s1")
8.1

====

test: AUC (0 to infinity) in Fischer 344 rat at 3 mg/kg, po; type: ADME, organism-based; parameters: dose 3 mg/kg, route oral, time infinity; conditions: in vivo
quantityMeasured: AUC(0-inf) (ng·h/mL)

>>> reportedvalue("CC(C)(C)C#Cc1cc(N(CC(=O)N2CCOCC2)C(=O)[C@H]2CC[C@H](C)CC2)c(C(=O)O)s1")
310

====

assay: Efflux ratio of permeability from basolateral to apical side over apical to basolateral side in human Caco2 cells; type: ADME, cell-based; details: Caco-2
quantityMeasured: efflux ratio

>>> reportedvalue("CC(C)(C)C#Cc1cc(N(CC(=O)N2CCOCC2)C(=O)[C@H]2CC[C@H](C)CC2)c(C(=O)O)s1")
14

====

test: Protein binding in dog liver at 1 uM; format: ADME, tissue-based, Canis lupus familiaris; conditions: read-out: PB (converted)
quantityMeasured: fraction unbound at 1 µM

>>> reportedvalue("CC(C)(C)C#Cc1cc(N(CC(=O)N2CCOCC2)C(=O)[C@H]2CC[C@H](C)CC2)c(C(=O)O)s1")
0.14

====

test: Clearance in Fischer 344 rat at 1 mg/kg, iv through bolus administration; format: ADME, organism-based; conditions: in vivo
quantityMeasured: clearance (mL/min/kg)

>>> reportedvalue("CC(C)(C)C#Cc1cc(N(CC(=O)N2CCOCC2)C(=O)[C@H]2CC[C@H](C)CC2)c(C(=O)O)s1")
13.8

====

test: Metabolic stability in dog liver microsomal S9 fraction assessed as compound remaining at 1 uM after 2 hrs in presence of NADPH; assay type: ADME, subcellular, Canis lupus familiaris; conditions: read-out: Stability
quantityMeasured: remaining at 2 h, 1 µM (%)

>>> reportedvalue("CC(C)(C)C#Cc1cc(N(CC(=O)N2CCOCC2)C(=O)[C@H]2CC[C@H](C)CC2)c(C(=O)O)s1")
82

====

test: Oral bioavailability in Fischer 344 rat at 3 mg/kg; format: ADME, organism-based; conditions: in vivo
quantityMeasured: bioavailability (%)

>>> reportedvalue("CC(C)(C)C#Cc1cc(N(CC(=O)N2CCOCC2)C(=O)[C@H]2CC[C@H](C)CC2)c(C(=O)O)s1")
6.5
